# experimentalDetails: recombinant UMI read abundance after kanamycin selection (control-corrected) (log10(CPM+1)); higher = more efficient recombination; extreme values may be limits of the assay; sequences stand for … in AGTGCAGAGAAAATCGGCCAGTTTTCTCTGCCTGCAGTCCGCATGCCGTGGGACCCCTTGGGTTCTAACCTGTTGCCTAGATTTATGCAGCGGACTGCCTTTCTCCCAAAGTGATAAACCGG…AGGTTGGTTTCACT; site = the 11-nt donor;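 further: IS621 bridge recombinase in Escherichia coli cells against a fixed T5 target plasmid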
Decide by recombinant UMI read abundance (log10): equal to or exceeding 0.5 means Yes, less means No.

# bool: recombinant UMI read abundance (log10) of CCCTCTACATGGACCGGTTTTCCCGGTAATCCGTATTTGCT (site CCCTCTACTAG) >= 0.5
Yes

# bool: recombinant UMI read abundance (log10) of GCGGCACCATGGACCGGTTTTCCCGGTAATCCGTATTTGCA (site GAGGCACCTTG) >= 0.5
No

# bool: recombinant UMI read abundance (log10) of CAATTCCCATGGACCGGTTTTCCCGGTAATCCGTATTTGGT (site CAATTCCCTAC) >= 0.5
Yes

# bool: recombinant UMI read abundance (log10) of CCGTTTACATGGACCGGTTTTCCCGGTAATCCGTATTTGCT (site CCGTTTACTAG) >= 0.5
No

# bool: recombinant UMI read abundance (log10) of GACTATCCATGGACCGGTTTTCCCGGTAATCCGTATTTGCT (site GATTATCCTAG) >= 0.5
No

# bool: recombinant UMI read abundance (log10) of CTACTAACATGGACCGGTTTTCCCGGTAATCCGTATTTGAA (site CTACTAACTTA) >= 0.5
Yes

# bool: recombinant UMI read abundance (log10) of ATCCAATCATGGACCGGTTTTCCCGGTAATCCGTATTTGAG (site ATCCAATCTCT) >= 0.5
Yes

# bool: recombinant UMI read abundance (log10) of ACGTGGACATGGACCGGTTTTCCCGGTAATCCGTATTTGTG (site ACGTGGACTCA) >= 0.5
Yes

# bool: recombinant UMI read abundance (log10) of TAGATAACATGGACCGGTTTTCCCGGTAATCCGTATTTGTG (site TAGATAACTCA) >= 0.5
Yes
